- testMethodNotes: PSAC antagonists in infected red cells, primary screen, cell-based, P. falciparum Indochina, OD700, 2 h (AID 1155);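 also: lysis reports solute entry through the parasite surface anion channel PSAC; channel blockers reduce lysis of infected cells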
- assaySetup: P. falciparum Indochina infected erythrocytes, osmotic lysis OD700; higher = more signal, called active from +8 up or from −8 down
Calls of active or inactive are those of the source.

# compound, z-score
data = [
    ("CCOC(=O)C[C@H]1[C@H](OC(=O)c2ccc(-c3ccccc3)cc2)[C@@H](NC(=O)c2ccc(-c3ccccc3)cc2)c2cc(OCCCO)ccc2N1C(=O)c1ccccc1", "0.745 (inactive)"),
    ("O=C(c1ccccc1)N1Cc2ccccc2C[C@@]2(N=C(c3ccc(OCCCO)cc3)O[C@H]2c2ccccc2)C1=O", "1.66 (inactive)"),
    ("CN1C2C=C(c3ccc(CO)cc3)C(C3C(=O)N(C(N)=O)C(=O)C32)C1C1CC1 (configuration not stated)", "0.411 (inactive)"),
    ("CS(=O)(=O)CCOC(=O)C1=CC(CCCO)=CC(C2CC2)N(Cc2sc3ccccc3c2Cl)C=C1C(=O)OCCS(C)(=O)=O (configuration not stated)", "2.13 (inactive)"),
    ("COc1ccc(CCNC(=O)[C@@]2(C)c3ccccc3C(=O)N(Cc3ccc(OC(F)(F)F)cc3)[C@H]2c2ccc(CO)cc2)cc1", "1.67 (inactive)"),
    ("O=C1O[C@H](c2ccccc2)[C@H](c2ccccc2)N2[C@H]1[C@@H](C(=O)O)[C@]1(C(=O)Nc3ccccc31)[C@H]2c1ccc(OCCO)cc1", "0.173 (inactive)"),
    ("COc1ccc([Si](C)(C)[C@@H]2[C@@H](CC(=O)N3Cc4ccccc4C[C@H]3CO)O[C@]3(C(=O)N(Cc4ccc(I)cc4)c4ccccc43)[C@H]2C)cc1", "1.98 (inactive)"),
]

* * *

- testMethodNotes: basal MM1S mitochondrial membrane potential changes, profiling panel, cell-based, JC-1 fluorescence, 24 h, 100 nL compound (AID 1170)
- assaySetup: higher = more signal
Each record here notes measured z-score.

# querySmiles, z-score
records = [
    ("O=C1O[C@H](c2ccccc2)[C@H](c2ccccc2)N2[C@H]1[C@@H](C(=O)N1CCCCCCC1)[C@]1(C(=O)Nc3ccc(C#CCCO)cc31)[C@H]2c1ccc(O)cc1", -0.979),
    ("C=C[C@H](OC)[C@@H](O)c1ccc(OC)c(O)c1", 0.443),
    ("CCCN1C(=O)[C@@]2(c3ccc([N+](=O)[O-])cc3)CC(=O)N(C3CCCCC3)[C@@H]2c2ccc(CO)cc21", -0.868),
    ("C=CCNC(=O)[C@@H]1[C@H]2C(=O)O[C@H](c3ccccc3)[C@H](c3ccccc3)N2[C@H](c2ccc(OCCO)cc2)[C@@]12C(=O)N(C(=O)OCCOC)c1ccccc12", 0.332),
    ("CC(C)(C)OC(=O)CC[C@]1(C(N)=O)N=C(c2ccc(OCCCO)cc2)O[C@H]1c1ccccc1N=[N+]=[N-]", -1),
    ("Cc1ccc(S[C@]2(C(=O)NC3CC3)CC(=O)N(C3Cc4ccccc4C3)[C@@H]2c2ccc(CO)cc2I)cc1", -0.499),
    ("COC(=O)[C@@]1(Cc2ccc(F)cc2)[C@@H]2C(=CC(=O)[C@H]2CC(=O)C(=O)N2CCCC2)CN1C(=O)c1ccccc1", -2.82),
]

* * *

- target: Neurogenic locus notch homolog protein 3 (Homo sapiens)
- testMethodNotes: NOTCH3 binders on small-molecule microarray, primary screen, biochemical, 635/667 nm fluorescence (AID 1096)
- assaySetup: NOTCH3 binding, 635 nm fluorescence, higher = more signal

# molecule, target, composite z-score
rows = [
    ("C=C(C(=O)CC[C@H](OC(=O)c1ccccc1-c1ccccc1C(=O)O)c1ccc(OCCO)cc1)C(C)C", "Neurogenic locus notch homolog protein 3 (Homo sapiens)", 0.241),
    ("COC(=O)[C@@]1(Cc2ccc(F)cc2)[C@H]2c3cc(C(=O)N(C)C)n(Cc4ccsc4Br)c3C[C@H]2CN1C(=O)c1ccccc1", "Neurogenic locus notch homolog protein 3 (Homo sapiens)", 1.08),
    ("CC1CC/C=C\\[C@H]2OC34C=CCN(CCN5CCOCC5)C(=O)[C@H]3N(C(CO)C(C)C)C(=O)[C@@H]4C2C(=O)O1 (stereo not given in full)", "Neurogenic locus notch homolog protein 3 (Homo sapiens)", 0.398),
    ("Cc1ccc(S[C@]2(C(=O)NCc3ccccc3)CC(=O)N(Cc3ccccc3Cl)[C@@H]2c2ccc(CO)cc2)cc1", "Neurogenic locus notch homolog protein 3 (Homo sapiens)", -0.0303),
    ("O=C1OCC=C[C@H]2OC34C=CCN(Cn5nnc6ccccc65)C(=O)[C@H]3N(CCO)C(=O)[C@@H]4[C@@H]12 (stereo not given in full)", "Neurogenic locus notch homolog protein 3 (Homo sapiens)", -0.481),
    ("C#CCN(C(=O)OC(C)(C)C)[C@H](CO)c1ccccc1", "Neurogenic locus notch homolog protein 3 (Homo sapiens)", 0.524),
    ("[N-]=[N+]=NCc1ccccc1[C@H]1OC(c2ccc(OCCCO)cc2)=N[C@@]1(Cc1ccccc1N=[N+]=[N-])C(=O)N1CCOCC1", "Neurogenic locus notch homolog protein 3 (Homo sapiens)", 1.11),
    ("COCCOC(=O)N1C(=O)[C@@]2(c3cc(C#CCNC(N)=O)ccc31)[C@H](C(=O)Nc1nc3ccccc3s1)[C@H]1C(=O)O[C@H](c3ccccc3)[C@H](c3ccccc3)N1[C@@H]2c1ccc(O)cc1", "Neurogenic locus notch homolog protein 3 (Homo sapiens)", 0.986),
    ("C=C[C@H](OC)[C@@H](O)c1ccc(OC)c(O)c1", "Neurogenic locus notch homolog protein 3 (Homo sapiens)", -0.436),
    ("COC(=O)[C@@]1(Cc2ccc(F)cc2)[C@H]2c3cc(C(=O)N4CCCC4)n(Cc4ccc(C(F)(F)F)nc4)c3C[C@H]2CN1C(=O)c1ccccc1", "Neurogenic locus notch homolog protein 3 (Homo sapiens)", 1.03),
    ("C=C(C(=O)CC[C@@H](OC(=O)c1ccccc1-c1ccccc1C(=O)O)c1cccc(OCCO)c1)C(C)C", "Neurogenic locus notch homolog protein 3 (Homo sapiens)", 0.164),
    ("[N-]=[N+]=Nc1ccccc1C[C@]1(C(=O)N2CCCCC2)N=C(c2ccc(OCCCO)cc2)O[C@H]1c1ccccc1", "Neurogenic locus notch homolog protein 3 (Homo sapiens)", 1.1),
    ("CC(C)c1ccc(NN2C(C(O)C(C)c3ccccc3)C=CC3C(=O)N(c4ccccc4)C(=O)C32)cc1 (stereo not given)", "Neurogenic locus notch homolog protein 3 (Homo sapiens)", 1.07),
    ("COCCCNC(=O)[C@@]1(c2ccc([N+](=O)[O-])cc2)CC(=O)N(C2CCCCC2)[C@@H]1c1ccc(CO)cc1I", "Neurogenic locus notch homolog protein 3 (Homo sapiens)", 0.0429),
    ("CO[C@H]1O[C@H](CO)[C@@H](OC(=O)Nc2cccc(F)c2)[C@H](OC(=O)Nc2ccc3c(c2)OCO3)[C@@H]1OC(=O)Nc1ccc2c(c1)OCO2", "Neurogenic locus notch homolog protein 3 (Homo sapiens)", 1.08),
]

* * *

- testMethodNotes: small-molecule microarray binders of probe aNog, primary screen, biochemical, biotinylated probe, 635/667 nm fluorescence (AID 1115);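 also: probe is biotinylated aNog protein used at 0.15 µg/mL for 1 h at 4 C; z-score combines 667 nm fluorescence of each spot with its signal to noise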
- assaySetup: higher = more signal

# compound, composite z-score
measured = [
    ("CCOC(=O)C[C@H]1[C@H](OC(=O)c2ccccc2-c2ccccc2)[C@@H](NC(=O)CC(C)C)c2cc(OCCCO)ccc2N1C(=O)c1ccccc1", -0.189),
    ("CCOC(=O)C1=CCC(c2cccn2C(=O)OC(C)(C)C)N(S(=O)(=O)c2ccc(C)cc2)C1 (stereo not drawn)", 1.21),
    ("CC(C)N1C(=O)[C@@]2(Cc3ccccc31)c1ccccc1C(=O)N(Cc1ccccc1)[C@H]2c1ccc(CO)cc1", -0.218),
    ("O=C1C2C=CC(C(O)C(c3ccccc3)c3ccccc3)N(Nc3ccccc3F)C2C(=O)N1c1ccccc1 (stereo not drawn)", 0.686),
    ("CCCCC(=C=CC[C@@H](O)c1ccccc1OCCO)C[C@@H](O)c1ccccn1", -0.108),
    ("COCCOC(=O)N1C(=O)[C@@]2(c3cc(C#CCNC(N)=O)ccc31)[C@H](C(N)=O)[C@H]1C(=O)O[C@H](c3ccccc3)[C@H](c3ccccc3)N1[C@@H]2c1ccc(O)cc1", -0.0245),
    ("C=CC[C@H](O)c1ccc(O)c(F)c1", -0.537),
    ("C=C(COC)C(=O)CC[C@H](OC(C)=O)c1ccc(CO)o1", -0.273),
]

* * *

- System: XIP peptide (Xip251-270)
- testMethodNotes: small-molecule binders of XIP peptide, primary screen, biochemical, small-molecule microarray, fluorescence 635/667 nm, 0.5 µg/mL protein (AID 1183)
- assaySetup: small-molecule microarray binding, fluorescence 635 nm; higher = more signal
Classify as follows. Reported composite z-score greater than or equal to 0.5: Criterion met. Reported composite z-score below: Criterion not met.

# querySmiles, discreteLabel
data = [
    ("CCCNC(=O)[C@@]1(Sc2ccc(C)cc2)CC(=O)N(Cc2cc(C(F)(F)F)cc(C(F)(F)F)c2)[C@@H]1c1ccc(CO)cc1", "Criterion not met"),
    ("NCCCCCCNC(=O)[C@@H]1C[C@@H]2C(=O)NCC(=O)N2[C@@H]1c1cccc(OCCO)c1", "Criterion not met"),
    ("C=C1C(=O)C=C2CN(C(=O)c3ccccc3)[C@@](Cc3ccc(F)cc3)(C(=O)OC)[C@@H]12", "Criterion not met"),
    ("COCCOC(=O)N1C(=O)[C@@]2(c3cc(C#CCNC(N)=O)ccc31)[C@H](C(=O)Nc1nc3ccccc3s1)[C@H]1C(=O)O[C@H](c3ccccc3)[C@H](c3ccccc3)N1[C@@H]2c1ccc(O)cc1", "Criterion not met"),
    ("C=CCN1C(=O)[C@@]2(O[C@@H](CCO)[C@H]([Si](C)(C)c3ccc(OC)cc3)[C@H]2C)c2cc(N3CCCCC3=O)ccc21", "Criterion met"),
    ("O=C1O[C@H](c2ccccc2)[C@H](c2ccccc2)N2[C@H]1[C@@H](C(=O)N1CCCCCCC1)[C@]1(C(=O)Nc3ccc(C#CCCO)cc31)[C@H]2c1ccc(O)cc1", "Criterion met"),
]
